tested.on: Glutamate NMDA receptor; Grin1/Grin2a (Rattus norvegicus, UniProt P35439+Q00959)
Sequence (Q00959 whole entry, other chains not shown): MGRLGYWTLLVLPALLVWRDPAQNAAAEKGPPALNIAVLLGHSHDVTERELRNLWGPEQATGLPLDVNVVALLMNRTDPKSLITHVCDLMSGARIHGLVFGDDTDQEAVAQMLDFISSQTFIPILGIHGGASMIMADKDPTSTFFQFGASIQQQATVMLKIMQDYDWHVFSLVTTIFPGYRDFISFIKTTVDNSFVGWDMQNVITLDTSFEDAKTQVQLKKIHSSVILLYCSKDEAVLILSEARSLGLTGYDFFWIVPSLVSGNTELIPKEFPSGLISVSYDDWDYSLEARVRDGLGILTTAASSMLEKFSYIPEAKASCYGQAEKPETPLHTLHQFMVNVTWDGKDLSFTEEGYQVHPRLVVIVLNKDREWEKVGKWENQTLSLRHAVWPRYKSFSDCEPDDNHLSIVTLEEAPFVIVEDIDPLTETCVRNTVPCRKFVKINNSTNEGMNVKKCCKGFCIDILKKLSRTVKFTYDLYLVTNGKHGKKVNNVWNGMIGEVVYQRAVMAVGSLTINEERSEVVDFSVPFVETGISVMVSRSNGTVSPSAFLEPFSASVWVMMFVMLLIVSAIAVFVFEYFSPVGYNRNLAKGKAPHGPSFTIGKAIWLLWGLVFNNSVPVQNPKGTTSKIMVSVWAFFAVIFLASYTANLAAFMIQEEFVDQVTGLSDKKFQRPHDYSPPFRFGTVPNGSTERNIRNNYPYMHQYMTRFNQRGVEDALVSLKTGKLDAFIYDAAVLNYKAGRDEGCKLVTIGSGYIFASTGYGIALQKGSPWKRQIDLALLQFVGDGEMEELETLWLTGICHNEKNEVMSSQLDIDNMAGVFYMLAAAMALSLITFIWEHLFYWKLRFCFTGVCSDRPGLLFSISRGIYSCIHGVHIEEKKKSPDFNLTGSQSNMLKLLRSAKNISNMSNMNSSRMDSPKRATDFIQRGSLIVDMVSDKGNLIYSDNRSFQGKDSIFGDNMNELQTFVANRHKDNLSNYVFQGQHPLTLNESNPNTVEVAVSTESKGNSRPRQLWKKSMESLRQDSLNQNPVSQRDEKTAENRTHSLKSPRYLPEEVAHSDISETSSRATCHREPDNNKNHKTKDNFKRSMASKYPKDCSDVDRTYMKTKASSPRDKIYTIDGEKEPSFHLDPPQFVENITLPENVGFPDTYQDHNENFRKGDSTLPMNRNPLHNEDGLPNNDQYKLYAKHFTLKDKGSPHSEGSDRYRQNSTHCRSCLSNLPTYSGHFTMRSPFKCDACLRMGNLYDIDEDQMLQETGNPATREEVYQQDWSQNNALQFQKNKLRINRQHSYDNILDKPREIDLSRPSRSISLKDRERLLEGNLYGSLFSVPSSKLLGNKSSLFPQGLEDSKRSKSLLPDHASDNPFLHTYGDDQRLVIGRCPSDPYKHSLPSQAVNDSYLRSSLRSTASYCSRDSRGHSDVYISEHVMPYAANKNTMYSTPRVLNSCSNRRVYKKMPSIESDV
measurement.description: Antagonist activity at rat brain GluN1/GluN2A receptor expressed in Xenopus laevis oocytes assessed as inhibition of glutamate/glycine-induced channel current by two electrode voltage clamp method
Counter-ions that a name gives are not always drawn.
measurement.kind: pIC50
Please treat pIC50 as minus the base-10 logarithm of the molar concentration.

Some compounds with recorded pIC50:
CC12CC3CC(C)(C1)CC(N)(C3)C2 [MEMANTINE HYDROCHLORIDE] :: 5.86
CC12CC3CC(C)(C1)CC(NCCCCNCCCCNC(=N)N)(C3)C2 :: 6.42

Now look at this entry.
# returns recorded pIC50 (system: Glutamate NMDA receptor; Grin1/Grin2a (Rattus norvegicus, UniProt P35439+Q00959)) for CC12CC3CC(C)(C1)CC(NCCCCNCCCCN)(C3)C2 6.18

====

tested.on: Glutamate NMDA receptor; Grin1/Grin2b (Rattus norvegicus, UniProt P35439+Q00960)
Sequence (Q00960 whole entry, other chains not shown): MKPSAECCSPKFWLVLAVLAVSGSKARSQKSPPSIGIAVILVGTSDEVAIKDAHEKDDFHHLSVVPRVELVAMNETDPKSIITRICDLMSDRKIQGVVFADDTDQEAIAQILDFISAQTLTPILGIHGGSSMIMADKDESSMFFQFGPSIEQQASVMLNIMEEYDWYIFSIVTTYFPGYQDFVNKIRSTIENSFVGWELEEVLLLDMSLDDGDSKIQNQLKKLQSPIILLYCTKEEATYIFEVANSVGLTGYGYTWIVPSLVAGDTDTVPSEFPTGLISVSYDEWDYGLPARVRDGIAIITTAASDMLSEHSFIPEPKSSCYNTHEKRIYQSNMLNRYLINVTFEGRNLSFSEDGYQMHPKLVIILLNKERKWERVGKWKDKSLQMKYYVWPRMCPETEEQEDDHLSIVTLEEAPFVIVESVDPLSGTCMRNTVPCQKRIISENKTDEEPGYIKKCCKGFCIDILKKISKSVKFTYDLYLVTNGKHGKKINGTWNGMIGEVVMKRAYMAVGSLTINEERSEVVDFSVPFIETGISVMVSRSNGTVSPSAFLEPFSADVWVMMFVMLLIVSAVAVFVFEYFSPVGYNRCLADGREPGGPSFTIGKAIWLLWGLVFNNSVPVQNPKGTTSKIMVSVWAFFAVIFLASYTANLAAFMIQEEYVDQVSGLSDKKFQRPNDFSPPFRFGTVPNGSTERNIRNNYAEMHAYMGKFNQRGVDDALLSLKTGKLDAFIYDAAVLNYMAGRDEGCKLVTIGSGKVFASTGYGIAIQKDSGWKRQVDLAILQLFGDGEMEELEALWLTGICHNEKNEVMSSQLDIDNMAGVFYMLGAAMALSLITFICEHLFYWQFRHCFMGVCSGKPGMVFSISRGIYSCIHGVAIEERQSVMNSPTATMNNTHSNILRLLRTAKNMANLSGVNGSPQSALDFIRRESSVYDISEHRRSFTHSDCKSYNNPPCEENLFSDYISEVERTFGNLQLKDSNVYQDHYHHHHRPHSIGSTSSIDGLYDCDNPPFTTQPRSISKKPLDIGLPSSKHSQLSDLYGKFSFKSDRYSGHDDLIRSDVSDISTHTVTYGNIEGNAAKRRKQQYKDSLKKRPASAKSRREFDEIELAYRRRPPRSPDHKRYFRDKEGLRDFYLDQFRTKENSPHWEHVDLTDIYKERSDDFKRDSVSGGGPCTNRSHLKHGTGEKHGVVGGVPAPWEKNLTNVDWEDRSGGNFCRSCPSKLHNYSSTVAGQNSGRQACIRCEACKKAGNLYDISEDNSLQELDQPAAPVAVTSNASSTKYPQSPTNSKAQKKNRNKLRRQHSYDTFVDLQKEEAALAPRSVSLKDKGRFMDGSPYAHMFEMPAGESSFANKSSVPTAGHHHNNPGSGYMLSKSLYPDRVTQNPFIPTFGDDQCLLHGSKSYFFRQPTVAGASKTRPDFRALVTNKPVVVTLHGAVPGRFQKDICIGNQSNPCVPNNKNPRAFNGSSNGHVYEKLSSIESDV
measurement.description: Antagonist activity at rat brain GluN1/GluN2B receptor expressed in Xenopus laevis oocytes assessed as inhibition of glutamate/glycine-induced channel current by two electrode voltage clamp method
measurement.kind: pIC50
Please treat pIC50 as minus the base-10 logarithm of the molar concentration.

CC12CC3CC(C)(C1)CC(NCCCCNCCCCN)(C3)C2 :: 6.23

Looking for the measured pIC50 of CC12CC3CC(C)(C1)CC(NCCCCNCCCCNC(=N)N)(C3)C2 , can you help? 6.36
